# measurementDescription: JC-1 mitochondrial potential readout, lung cancer cells – cell-based, A549, JC-1 fluorescence, basal, 24 h, 100 nL, profiling panel (AID 1138);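 note: A549 lung adenocarcinoma cells under basal conditions with no added stimulus; test concentration not given here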
# conditionsUsed: higher = more signal
measuredQuantity: z-score

A selection of reference data follows.
molecule	z-score
C=CCC(OC(C)=O)[C@@H]1[C@@H](N(Cc2ccc(-c3cccc(C(F)(F)F)c3)o2)C(=O)Cc2ccc(OC)cc2)c2cc(OCCCO)ccc2N1C(=O)Cc1ccc(OC)cc1 (stereo partly drawn)	0.212
Oc1ccc2cc[n+](Cc3cccc(OC(F)(F)F)c3)cc2c1	0.579
O=C1OCC=C[C@H]2OC34C=CCN(CCN5CCOCC5)C(=O)[C@H]3N(CCCCCCO)C(=O)[C@@H]4[C@@H]12 (stereo partly drawn)	0.582
CC(c1ccccc1)C(O)C1C=CC2C(=O)N(Cc3ccccc3)C(=O)C2N1n1cnnc1 (stereo not drawn)	-1.27
Cc1ccc(F)cc1S(=O)(=O)N[C@@H]1CCN(Cc2ccc(C(F)(F)F)cc2)C1	0.197
COCCOC(=O)N1C(=O)[C@@]2(c3cc(C#Cc4ccc(OC)cc4)ccc31)[C@H](c1ccc(OCCO)cc1)N1[C@H](c3ccccc3)[C@H](c3ccccc3)OC(=O)[C@H]1[C@@H]2C(=O)N1CCc2cc(OC)c(OC)cc2C1	-1.35
NC(=O)[C@]1(Cc2ccccc2)N=C(c2ccc(OCCCO)cc2)O[C@@H]1c1ccccc1	-1.04

Requested read-out: z-score. Entry: C=C(C(=O)CC[C@@H](OC(=O)c1cccnc1)c1ccc(CO)o1)C(C)C
0.288

----------
composite z-score by entry:
# Tested on: Noggin (protein binding on small-molecule microarray)
# measurementDescription: small molecules binding Noggin protein – biochemical, 635/667 nm fluorescence, primary screen (AID 1095);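 note: score merges 667 nm feature fluorescence with signal to noise over triplicate slides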
# conditionsUsed: 635 nm fluorescence, higher = more signal

molecule	composite z-score
CN(C)CCCCNC(=O)[C@@H]1C[C@@H]2C(=O)N[C@@H](CCCCN)C(=O)N2[C@@H]1c1cccc(OCCO)c1	-0.989

Requested read-out: composite z-score. Entry: CN(C)CCCC[C@@H]1NC(=O)[C@@H]2C[C@H](C(=O)NCCCCCCN)[C@H](c3ccc(O)cc3)N2C1=O
0.855

Could you do the same for COc1ccc(CCNC(=O)[C@@]2(C)c3ccccc3C(=O)N(Cc3ccccc3)[C@H]2c2ccc(CO)cc2)cc1 , please?
1.33

Could you do the same for O=C(NCC(O)CO)[C@]1(CCS(=O)(=O)c2ccccc2)N=C(c2ccc(OCCCO)cc2)O[C@@H]1c1ccccc1 (stereo partly drawn) , please?
-0.203

Could you do the same for C=C(CCCC)/C(=C/C[C@H](OC(C)=O)c1ccc(CO)o1)c1cc(C(=O)OC)ccc1OC , please?
1.8

Could you do the same for O=C1OCCC/C=C\[C@H]2OC34C=CCN(CCN5CCOCC5)C(=O)[C@H]3N(CCO)C(=O)[C@@H]4C12 (stereo partly drawn) , please?
-0.915

Could you do the same for CC(C)C[C@@H]1NC(=O)[C@@H]2C[C@H](C(=O)NCCCCN(C)C)[C@H](c3ccc(O)cc3)N2C1=O , please?
0.118

Could you do the same for COc1ccc([Si](C)(C)[C@@H]2[C@@H](CC(=O)N3Cc4ccccc4C[C@H]3CO)O[C@]3(C(=O)N(Cc4cccc(N5C(=O)COc6ccccc65)c4)c4ccccc43)[C@H]2C)cc1 , please?
0.812
